# Tested on: MS2 coat protein
# Assay Comment: apparent KD of MS2 coat protein; designed switch direction (-1 OFF switch, 1 ON switch): -1; higher = weaker reporter binding
# Condition Set: input ligand: none
Grouping by measured apparent KD of MS2 coat protein is done with the following cut points: low = under 20 nM, mid = from 20 nM up to 40 nM, high = 40 nM and over

>  <Sequence Data>
UCCGUGUCAGGAUAUAACUGGUCGAGCGCAGAAGCGUCCUGUUAGAAGGGACAUGAGGAUCACCCAUGUUUAAC [Eternabot (L1) Solution 74] (Eterna round: R97, puzzle: Exclusion 4)

>  <Class Name>
mid

$$$$
>  <Sequence Data>
GUAGAGUCAGGAUAUACGCGAUCGAAAGAUCGGUGGUCCUUACAUGAGGAUCACCCAUGUAGAAGGGACUCUAC [Omei mod 13 to Eli's favorate candidate (ch.parushev)] (Eterna round: R97, puzzle: Exclusion 2)

>  <Class Name>
high

$$$$
>  <Sequence Data>
UUGCAGUCGUCAGGAUAUAGUAUUACGGCCUUUUAUUUUUUCAUACAUGAGGAUCACCCAUGUCGCUAGAAGGGAUUAUCGAUU [salish99_ExNG2_r04_104] (Eterna round: R96, puzzle: Exclusion NG 2)

>  <Class Name>
high

$$$$
>  <Sequence Data>
UUUUUAUAUGAAGGAUAUACUUAACAUGAGGAUCACCCAUGUGGUGUUGUGAGUGAGUGAGUUUAGUAGAAGGUCAAGUACUUU [JMF's solution 37] (Eterna round: R96, puzzle: Exclusion NG 2)

>  <Class Name>
high

$$$$
>  <Sequence Data>
AAAGUUGCCUACGGUGUGCACAUGAGGAUCACCCAUGUACCUCCAUGGCAGUGCCAAUAAUUAUGCUCGUCACUACA [Eternabot (L1) Solution 18] (Eterna round: R97, puzzle: Sensor, turn-off variant 1)

>  <Class Name>
low

$$$$
>  <Sequence Data>
AAUGUUUGAUACCUUUAAUACAUGAGGAUCACCCAUGUUAUCGAGGAUAUGUAGAAGAGAUGAGAACAGAAGGCGAAGUAAGAG [JR_ExcNG3_Sub097] (Eterna round: R96, puzzle: Exclusion NG 3)

>  <Class Name>
low

$$$$
>  <Sequence Data>
UGAUGACAUGAGGAUCACCCAUGUCAGGAUAUUGAUCGUGAUCGGAAAUGAUCGUGAUCGAGAAGGGACUGUCG [-24.4, -21.4 kcal, A 28%, 2] (Eterna round: R97, puzzle: Exclusion 1)

>  <Class Name>
mid

$$$$
>  <Sequence Data>
GCUGGUCAAGGAUAUGCAAUCGUGCUUCGGCACGUAAGGUCACAUGAGGAUCACCCAUGUAGAAGGUGACCAGC [E2/4-C1] (Eterna round: R97, puzzle: Exclusion 2)

>  <Class Name>
low

$$$$
>  <Sequence Data>
UCCGAAGCAGGAUAUACAUGAGGAUCACCCAUGUGCUUGCAUGGCGUGGGAAGUCAUAGUAGAAGGGCUACGCC [jl-ex3-4.71 ViennaUCT mod] (Eterna round: R97, puzzle: Exclusion 3)

>  <Class Name>
mid

$$$$

---

# Tested on: MS2 coat protein
# Assay Comment: apparent KD of MS2 coat protein; higher = weaker reporter binding
# Condition Set: Eterna round: R107; input ligand: tryptophan 2.4 mM

>  <Sequence Data>
AUUAAUAAUAUGUAGACGGCGGAGAAGAGACGAGGACCGGUACGGCCGCCACUCGUGUUAGUUAACAUGAGGAUCACCCAUGUUA [#09 Tryptophan A Same State]

>  <apparent KD of MS2 coat protein (nM)>
11.9

$$$$
>  <Sequence Data>
CCUAUGCAGUCGGCCGCCACUGUACAUGAGGAUCACCCAUGUUCUAAUAUAAUAAGAACUGAAAUCAGGACCGGGACUGUAUAGG [Ex Tryptophan B 2]

>  <apparent KD of MS2 coat protein (nM)>
19.3

$$$$
>  <Sequence Data>
GCCGGGCCCUCGGCCGCCACUGAGAGAGUCGUGUGAACAUGAGGAUCACCCAUGUAAUAUAUAUACAGGACCGGGAGGGCCCGGC [4.W]

>  <apparent KD of MS2 coat protein (nM)>
11.9

$$$$
>  <Sequence Data>
CGGACAUGAGGAUCACCCAUGUACACUGAAGGAGCGUCGAGAACGACAGGUAGGUCGCAGGUUGAGGAUGGUGAUGCUCAGGUAG [Exclusion Arginine A GF 3]

>  <apparent KD of MS2 coat protein (nM)>
14.3

$$$$
>  <Sequence Data>
UCGGGCAGAGCGGCCGCCACUGUUUGGCAUGCGGAUGAAGGAACAUGAGGAUCACCCAUGUAGAUUAGGACCGGGCUAGCGGAGA [sscsmullin]

>  <apparent KD of MS2 coat protein (nM)>
16.3

$$$$
>  <Sequence Data>
AGAUAACAUGGUUUAAUAAGUUAAACUGAUACCAGUGUAUAUAAUCACCCUUGGCAGCAGCAACAUGAGGAUCACCCAUGUAAUA [JR_SSTheophyA_Sub013]

>  <apparent KD of MS2 coat protein (nM)>
19.6

$$$$
>  <Sequence Data>
ACAUGAGGAUCACCCAUGUAGUGGCACGAUACCAGCUGAUCCCGUGGCCCUUGGCAGCGUCCGGUGUGGUGCGCCGGGAUGGAGC [ZSZMULLIN]

>  <apparent KD of MS2 coat protein (nM)>
35.6

$$$$
>  <Sequence Data>
UACAUGAGGAUCACCCAUGUAUAGAGGGAUACCAGUGUCAGUGAGCACCCUUGGCAGCCCGCGAACAAUGGGUGCGCUAUAUAGU [#20 Exclusion-TheophyllineA]

>  <apparent KD of MS2 coat protein (nM)>
28

$$$$
>  <Sequence Data>
UCACAUGAGGAUCACCCAUGUAAAGUUGAAGGAGCGAUCAUUAGGUCAGGUAGGUCGCAACACAUGAGGAUCACCCAUGUUGUCC [DOUBLE!!! :-D]

>  <apparent KD of MS2 coat protein (nM)>
38.3

$$$$
>  <Sequence Data>
UUUUUUAACUGAAGGAGCGUCACAUGAGGAUCACCCAUGUAUUAGAUGAGAAGGAUCUUGUGGCAGGUAGGUCGCAGAGGAAGGG [e-argB-V]

>  <apparent KD of MS2 coat protein (nM)>
136

$$$$
>  <Sequence Data>
AUAACAUGAGGAUCACCCAUGUAAGCAGAUACCAGCUAGGAAACUAGCCCUUGGCAGCUGCAAGGUGAUCCUAGGUAUCUGCAAU [(M1)-(M2)-(T1)-(T2)-(M)'-(T)'_Design6]

>  <apparent KD of MS2 coat protein (nM)>
25.9

$$$$
>  <Sequence Data>
ACGCUGAUUGAUUACAAUCAGCGAAAAGAUACCAGUGGGUAAUCCCACCCUUGGCAGCUUAAACUUGAGGAUCACCCAGGUGGUA [TheoAS 17 #MS2Right #BothOrNeither #AlternativeMS2]

>  <apparent KD of MS2 coat protein (nM)>
630

$$$$
>  <Sequence Data>
GGUGGGACUUGUGAUACCAGCCCAGUUCUAAUCGAACUGCACAUGAGGAUCACCCAUGUCGGCCCUUGGCAGCAUGAGUAUUUAU [Esceesor]

>  <apparent KD of MS2 coat protein (nM)>
326

$$$$
>  <Sequence Data>
UUGUGGCGCUCGGCCGCCACUCCGACAUGAGGAUCACCCAUGUUCUACAUGAGGAUCACCCAUGUGAGGACCGGGAGACACAACC [Exclusion Tryptophan B GF12]

>  <apparent KD of MS2 coat protein (nM)>
165

$$$$
>  <Sequence Data>
AACAUGAGGAUCACCCAUGUAAAACCGGUACGAGGACCGGUACGGCCGCCACUCGAAACAUGAGGAUCACCCAUGUAAUAAUAUU [Same State Trypophan A GF 21]

>  <apparent KD of MS2 coat protein (nM)>
91.3

$$$$
>  <Sequence Data>
GGCCGGUGCGCUUUGAAGCGACGGCGUGAUACCAGAUGUAAGAGCGUCCCUUGGCAGCACGUUUACAUGAGGAUCACCCAUGUCU [Zaveusxe]

>  <apparent KD of MS2 coat protein (nM)>
220

$$$$
>  <Sequence Data>
CAAUACGUAACUGAUACCAGUGUACUGACAUGAGGAUCACCCAUGUUGGGUUUUGUUGUACACCCUUGGCAGCAGAAUCGUAUUG [AstrosExyTheB#11]

>  <apparent KD of MS2 coat protein (nM)>
66.3

$$$$
>  <Sequence Data>
ACUAGUUGUGCAGAUACCAGACAUGAGGAUCACCCAUGUUUGGGAUCUAAUGAUCAUCUUGUCCCUUGGCAGCUGUACAUCUAGA [Omei Theo B Exc v1]

>  <apparent KD of MS2 coat protein (nM)>
55.5

$$$$
>  <Sequence Data>
UUUUACAUGAGGAUCACCCAUGUACAUGGGCGAGGACCGGUACGGCCGCCACUCGUGGGACCCACGGGCCCGCUUAGUGGGUACA [LarryB_001]

>  <apparent KD of MS2 coat protein (nM)>
57.4

$$$$
>  <Sequence Data>
UUUUACGCAAGUAAUUCCCGGGAACCGGAUACCAGCUCCUCCAACAGCCCUUGGCAGCCGACCACAUGAGGAUCACCCAUGUUUC [theeternabot_exclusion_MS2_Theo_A_28]

>  <apparent KD of MS2 coat protein (nM)>
12.7

$$$$
>  <Sequence Data>
ACGACGCAUAGUGAUACCAGUAGAACAUGAGGAUCACCCAUGUCUGUGACGCACCACCUCUGCCCUUGGCAGCACUAUGCGUCAG [SSTheo B #8]

>  <apparent KD of MS2 coat protein (nM)>
23

$$$$
>  <Sequence Data>
GCGGUCGGAGUGCGGCGUGUUCCGCUCCGUCGAGGACCGGUACGGCCGCCACUCGACAUGAGGAUCACCCAUGUCCGACCGCGCG [#1 Exclusion - Tryptophan A Attempt #5 (HarryS)]

>  <apparent KD of MS2 coat protein (nM)>
6.86

$$$$
>  <Sequence Data>
UGUUAUUUCCGAAGGAGCGGGAUACAUGAGGAUCACCCAUGUACAUGAGGAUCAACAUGAACCCAGGUAGGUCGCGGAUUUUGUC [Exclusion Arginine B 3]

>  <apparent KD of MS2 coat protein (nM)>
228

$$$$
>  <Sequence Data>
ACAUGAGGAUCACCCAUGUAGCCUAGGGAAGGAGCGUCGUAAGAGACAGGUAGGUCGCCCGCAUGUGGAUCACCCAUGUCGAGGG [SSArg A #11]

>  <apparent KD of MS2 coat protein (nM)>
38.7

$$$$
>  <Sequence Data>
UUUGAGAUAACAGAUACCAGCGUGUUAUAAAACAUGAGGAUCACCCAUGUAGUGAUCAAGCGCCCUUGGCAGCUGGUGUUUUAGG [7.H]

>  <apparent KD of MS2 coat protein (nM)>
141

$$$$

FYI, the data here is from the supplement of paper PMC9170038.
